Test: self-splicing fitness, log relative to wild type (ln ratio); higher = more splicing; Tetrahymena group I intron in knt gene, E. coli kanamycin selection, DiMSum; sequences stand for … in CUCUCU…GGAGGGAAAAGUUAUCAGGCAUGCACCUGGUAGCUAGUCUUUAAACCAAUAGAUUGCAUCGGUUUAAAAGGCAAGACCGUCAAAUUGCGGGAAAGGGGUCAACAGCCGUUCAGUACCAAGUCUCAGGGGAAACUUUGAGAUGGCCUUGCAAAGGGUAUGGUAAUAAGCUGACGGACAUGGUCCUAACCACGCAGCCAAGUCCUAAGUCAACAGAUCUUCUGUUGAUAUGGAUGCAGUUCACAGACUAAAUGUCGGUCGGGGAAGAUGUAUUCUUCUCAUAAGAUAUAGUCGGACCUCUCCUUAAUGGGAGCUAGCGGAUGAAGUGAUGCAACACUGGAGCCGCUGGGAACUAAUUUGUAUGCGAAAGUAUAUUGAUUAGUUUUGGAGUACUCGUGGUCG;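 note: selection with 25 µg/mL kanamycin versus none on LB agar overnight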
Settings: 37 °C
# cutoff -1 applies to self-splicing fitness (ln); >= gives label 1, < gives label 0

residue_codes	group
CACUAGCAAUAUUACGUUCA	label 0
CCCCAGCAAUAUUACGUUCA	label 0
GCCGAGCAAUAUUACGCACU	label 1
CAUAAGCAAUAUUACGUGUG	label 0
CGAUAGCAAUAUUACGGAGA	label 0
GGGUAGCAAUAUUACGAAUG	label 0

---

Assay: self-splicing fitness, log relative to wild type (ln ratio); higher = more splicing; Tetrahymena group I intron in knt gene, E. coli kanamycin selection, DiMSum; sequences stand for … in CUCUCU…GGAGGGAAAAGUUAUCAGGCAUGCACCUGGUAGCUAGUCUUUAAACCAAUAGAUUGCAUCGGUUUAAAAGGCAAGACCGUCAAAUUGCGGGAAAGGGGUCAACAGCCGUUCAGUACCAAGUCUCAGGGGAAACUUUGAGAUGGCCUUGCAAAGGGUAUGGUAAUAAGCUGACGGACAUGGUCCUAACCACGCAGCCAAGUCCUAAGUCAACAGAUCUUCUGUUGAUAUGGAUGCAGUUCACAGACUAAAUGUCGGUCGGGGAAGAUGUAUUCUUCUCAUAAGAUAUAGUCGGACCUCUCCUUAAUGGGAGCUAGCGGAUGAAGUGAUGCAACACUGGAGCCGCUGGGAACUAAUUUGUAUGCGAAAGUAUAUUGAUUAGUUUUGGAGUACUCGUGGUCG
Details: 30 °C
Quick list: self-splicing fitness (ln) per entry.
observed_property: self-splicing fitness (ln)

residue_codes	observed_property	measurement
ACCGAGCAAUAUUACGAAAU	self-splicing fitness (ln)	-2.68
GGUUAGCAAUAUUACGAAUC	self-splicing fitness (ln)	-1.76
UCUCAGCAAUAUUACGUUUU	self-splicing fitness (ln)	-3.4
CAAAAGCAAUAUUACGAUUG	self-splicing fitness (ln)	-2.75
ACAGAGCAAUAUUACGGUGC	self-splicing fitness (ln)	-3.86
ACCCAGCAAUAUUACGCACC	self-splicing fitness (ln)	-1.17
CGGUAGCAAUAUUACGUUAG	self-splicing fitness (ln)	0.11

---

Assay: self-splicing fitness, log relative to wild type (ln ratio); higher = more splicing; Tetrahymena group I intron in knt gene, E. coli kanamycin selection, DiMSum; sequences stand for … in CUCUCU…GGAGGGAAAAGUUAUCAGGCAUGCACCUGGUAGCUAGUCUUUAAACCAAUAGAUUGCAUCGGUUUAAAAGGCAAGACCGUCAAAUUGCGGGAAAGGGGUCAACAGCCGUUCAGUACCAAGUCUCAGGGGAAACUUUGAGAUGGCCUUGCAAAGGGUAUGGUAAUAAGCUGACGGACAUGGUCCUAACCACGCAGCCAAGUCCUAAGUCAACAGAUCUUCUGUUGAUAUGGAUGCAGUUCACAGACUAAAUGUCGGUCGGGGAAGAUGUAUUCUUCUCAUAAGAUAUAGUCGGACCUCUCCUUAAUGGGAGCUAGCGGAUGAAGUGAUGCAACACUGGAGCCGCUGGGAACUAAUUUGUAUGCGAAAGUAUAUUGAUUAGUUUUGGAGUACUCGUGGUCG
Details: 30 °C

residue_codes	self-splicing fitness (ln)
GCUGAGCAAUAUUACGUUGG	-2.52
AGUAAGCAAUAUUACGGUAG	-3.89
UUAAAGCAAUAUUACGAGAU	-3.41
AAGAAGCAAUAUUACGGUUC	-2.86
ACGCAGCAAUAUUACGUCGG	-1.23
ACAGAGCAAUAUUACGAGUG	-4.35
CGGCAGCAAUAUUACGAUGG	-0.549
GGUCAGCAAUAUUACGGUUU	-0.421

---

Assay: self-splicing fitness, log relative to wild type (ln ratio); higher = more splicing; Tetrahymena group I intron in knt gene, E. coli kanamycin selection, DiMSum; sequences stand for … in CUCUCU…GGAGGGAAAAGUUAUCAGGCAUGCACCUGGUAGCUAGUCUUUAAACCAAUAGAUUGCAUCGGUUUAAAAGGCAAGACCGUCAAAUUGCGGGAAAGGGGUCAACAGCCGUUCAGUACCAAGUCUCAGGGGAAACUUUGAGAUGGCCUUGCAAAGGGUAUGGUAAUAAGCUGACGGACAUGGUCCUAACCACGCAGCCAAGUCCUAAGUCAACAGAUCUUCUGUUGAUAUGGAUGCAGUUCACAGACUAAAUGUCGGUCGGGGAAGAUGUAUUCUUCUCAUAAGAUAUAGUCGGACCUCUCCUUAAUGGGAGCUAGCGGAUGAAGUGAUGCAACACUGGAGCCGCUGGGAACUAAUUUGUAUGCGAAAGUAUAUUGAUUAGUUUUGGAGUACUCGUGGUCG
Settings: 30 °C
# cutoff -2 applies to self-splicing fitness (ln); >= gives met, < gives not met

residue_codes	group
UCGAAGCAAUAUUACGACUA	met
UCUCAGCAAUAUUACGAUAG	not met
AUAAAGCAAUAUUACGAGCC	met
UGCCAGCAAUAUUACGCUUG	not met
AUAAAGCAAUAUUACGUUCU	met
UGUAAGCAAUAUUACGGCUU	met
AUGAAGCAAUAUUACGGUGU	met
CACCAGCAAUAUUACGUGGA	not met
UCGUAGCAAUAUUACGCUCG	met
ACGAAGCAAUAUUACGGACA	met
AAGAAGCAAUAUUACGGCAG	met
GUGCAGCAAUAUUACGAGGU	not met
AAUAAGCAAUAUUACGUAUG	not met
GCUUAGCAAUAUUACGAUAC	met
GGUUAGCAAUAUUACGCUCC	met
GAGUAGCAAUAUUACGGAGA	not met
AAGUAGCAAUAUUACGGGAG	not met

---

Experiment: self-splicing fitness, log relative to wild type (ln ratio); higher = more splicing; Tetrahymena group I intron in knt gene, E. coli kanamycin selection, DiMSum; sequences stand for … in CUCUCU…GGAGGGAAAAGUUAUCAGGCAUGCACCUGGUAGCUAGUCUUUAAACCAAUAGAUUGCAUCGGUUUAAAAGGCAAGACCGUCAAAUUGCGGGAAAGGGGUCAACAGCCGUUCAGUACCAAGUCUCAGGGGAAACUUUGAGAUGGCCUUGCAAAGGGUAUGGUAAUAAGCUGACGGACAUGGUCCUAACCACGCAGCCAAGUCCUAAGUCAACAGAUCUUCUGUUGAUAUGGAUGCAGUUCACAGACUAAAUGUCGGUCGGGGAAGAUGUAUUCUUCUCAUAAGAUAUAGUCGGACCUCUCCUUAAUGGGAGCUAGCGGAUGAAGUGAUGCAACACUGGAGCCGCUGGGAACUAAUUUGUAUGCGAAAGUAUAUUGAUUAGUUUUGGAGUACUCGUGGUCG
Conditions: 37 °C
# cutoff -1 applies to self-splicing fitness (ln); >= gives Met, < gives Not met

residue_codes	group
AUUUAGCAAUAUUACGUAUG	Met
GUUAAGCAAUAUUACGAGCU	Not met
CAAGAGCAAUAUUACGAAGC	Not met
AGUAAGCAAUAUUACGGGGC	Not met
CUUGAGCAAUAUUACGAGCA	Not met
UAAGAGCAAUAUUACGUCAC	Not met
CACAAGCAAUAUUACGUAUA	Not met
CAACAGCAAUAUUACGUAAA	Not met
UCCUAGCAAUAUUACGUUCU	Not met
GUUGAGCAAUAUUACGAAUG	Not met
CGUAAGCAAUAUUACGUCAG	Met
UGCCAGCAAUAUUACGAGGC	Not met
UGACAGCAAUAUUACGAUGG	Met
AAUGAGCAAUAUUACGCUGA	Not met
GAUCAGCAAUAUUACGUCUC	Met
ACAAAGCAAUAUUACGCCCG	Met
CGGCAGCAAUAUUACGAAAC	Not met
CCGGAGCAAUAUUACGUUCA	Not met
CUUUAGCAAUAUUACGAACU	Not met
GAUUAGCAAUAUUACGUUCG	Not met
CCCGAGCAAUAUUACGCUGC	Not met
AAUUAGCAAUAUUACGGGGG	Not met
AACGAGCAAUAUUACGGGAA	Not met
CAUAAGCAAUAUUACGUUAG	Met
CCGCAGCAAUAUUACGCUUU	Not met
AUAAAGCAAUAUUACGGUGC	Met
AACUAGCAAUAUUACGGGUA	Met
GUCUAGCAAUAUUACGGGGC	Not met
AAGAAGCAAUAUUACGUGGG	Not met
AAAGAGCAAUAUUACGCUGA	Not met
CGAGAGCAAUAUUACGUUGG	Not met
GCAUAGCAAUAUUACGCGUC	Not met
GAGGAGCAAUAUUACGAACC	Not met
UGCAAGCAAUAUUACGAUGU	Not met
CUAAAGCAAUAUUACGGGAC	Met
CACGAGCAAUAUUACGCUGG	Not met
UCGCAGCAAUAUUACGUUGU	Not met
GGCUAGCAAUAUUACGCCUC	Met
CGCCAGCAAUAUUACGGUCU	Met
GGAGAGCAAUAUUACGUCCU	Not met
GGCAAGCAAUAUUACGAAAC	Met
UGGUAGCAAUAUUACGGAAU	Met
CCCAAGCAAUAUUACGGGAA	Not met
CCAGAGCAAUAUUACGAAGU	Not met
GGCUAGCAAUAUUACGGUGA	Met
GCGGAGCAAUAUUACGGAAA	Not met
UAACAGCAAUAUUACGGAAU	Not met
CUUGAGCAAUAUUACGGGCA	Not met
UAGAAGCAAUAUUACGGUAA	Met
GUAAAGCAAUAUUACGGAAU	Met
CUCGAGCAAUAUUACGAGAU	Not met
GCUUAGCAAUAUUACGUCGG	Not met
AGAAAGCAAUAUUACGCUGA	Met
UCACAGCAAUAUUACGAUCC	Not met
GAUCAGCAAUAUUACGGGUG	Met
AUGCAGCAAUAUUACGAAGC	Met
ACAUAGCAAUAUUACGUGGG	Not met
AAUCAGCAAUAUUACGCAUC	Met
UCGUAGCAAUAUUACGAGAA	Not met
GGCUAGCAAUAUUACGCUAU	Met
